- Protocol notes: HUVEC growth inhibition – cell-based, human, primary screen (AID 575)
- Assay conditions: HUVEC proliferation, CellTiter-Glo luminescence, 72 h; at 10 µM; active compounds read low
Criterion: viability strictly less than 90%. Met: T. Not met: F.

| Compound | Label class |
| --- | --- |
| Cc1ccccc1NC(=O)N1C2CCCC1CC(NC(=O)C1CC1)C2 (stereo unspecified) | F |
| Cc1ccc(NC(=O)Nc2ccc3c(c2)N(C)C(=O)CS3)nc1 | T |
| Cc1ccc(S(=O)(=O)NCCNC(=O)c2ccccc2)cc1 | F |
| COc1ccc(C(c2nnnn2C2CCCC2)N2CCN(C3CCCC3)CC2)cc1OC (stereo unspecified) | T |
| CCOc1ccc2cc(C#N)c(SCC(=O)N3CCOCC3)nc2c1 | T |
| CCOC(=O)Cc1nn2c(=O)cc(C)nc2s1 | F |
| Cc1cnn(Cc2ccccc2)c1N | T |
| COc1ccc(CCNC(=O)c2cc(-c3cc(C)c(C)cc3O)n[nH]2)cc1OC | T |
| CCN(CC(=O)Nc1ccc(S(N)(=O)=O)cc1)S(=O)(=O)c1cc(C)ccc1OC | F |
